From: ChEMBL document CHEMBL3085642

Property: MIC; scope: individual molecules
- System: Bacillus spizizenii
- ASSAY OVERVIEW: Antibacterial activity against Bacillus subtilis ATCC 6633 by two fold broth dilution method
- Format: functional
Respond with the bare value in µg/mL.

// known answers, use as guide
O=[N+]([O-])c1c[nH]c(-c2nnc(-c3ccccc3Br)o2)c1 ... 1.56
Cn1cc([N+](=O)[O-])cc1-c1nnc(-c2cccc([N+](=O)[O-])c2O)o1 ... 1.56
Cn1cc([N+](=O)[O-])cc1-c1nnc(-c2ccns2)o1 ... 1.56
Cn1cc([N+](=O)[O-])cc1-c1nnc(-c2ccccc2Br)o1 ... 0.78
COc1cccc(OC)c1-c1nnc(-c2cc([N+](=O)[O-])c[nH]2)o1 ... 3.12

Prompt line: What is its MIC for Bacillus spizizenii? Entry: `Cn1cc([N+](=O)[O-])cc1-c1nnc(Cc2ccccc2F)o1`
Response line: 0.78

Prompt line: What is its MIC for Bacillus spizizenii? Entry: `COc1ccc(-c2nnc(-c3cc([N+](=O)[O-])c[nH]3)o2)cc1`
Response line: 3.12

Prompt line: What is its MIC for Bacillus spizizenii? Entry: `O=[N+]([O-])c1c[nH]c(-c2nnc(Cc3ccc(F)c4ccccc34)o2)c1`
Response line: 3.12

Prompt line: What is its MIC for Bacillus spizizenii? Entry: `Cn1cc([N+](=O)[O-])cc1-c1nnc(-c2cc(-c3ccccc3)nc3ccc(Cl)cc23)o1`
Response line: 1.56

Prompt line: What is its MIC for Bacillus spizizenii? Entry: `COc1cc(/C=C/c2nnc(-c3cc([N+](=O)[O-])cn3C)o2)ccc1O`
Response line: 1.56

Prompt line: What is its MIC for Bacillus spizizenii? Entry: `O=[N+]([O-])c1c[nH]c(-c2nnc(-c3ccco3)o2)c1`
Response line: 1.56

Prompt line: What is its MIC for Bacillus spizizenii? Entry: `Cn1cc([N+](=O)[O-])cc1-c1nnc(-c2ccc(Cl)cc2Cl)o1`
Response line: 0.78

Prompt line: What is its MIC for Bacillus spizizenii? Entry: `O=[N+]([O-])c1c[nH]c(-c2nnc(-c3cc4cc(Cl)ccc4[nH]3)o2)c1`
Response line: 3.12

Prompt line: What is its MIC for Bacillus spizizenii? Entry: `Cc1ccc(-c2nnc(-c3cc([N+](=O)[O-])c[nH]3)o2)s1`
Response line: 3.12

Prompt line: What is its MIC for Bacillus spizizenii? Entry: `O=[N+]([O-])c1c[nH]c(-c2nnc(-c3cccs3)o2)c1`
Response line: 1.56

Prompt line: What is its MIC for Bacillus spizizenii? Entry: `Cn1cc([N+](=O)[O-])cc1-c1nnc(-c2cccs2)o1`
Response line: 1.56

Prompt line: What is its MIC for Bacillus spizizenii? Entry: `COc1cccc(-c2nnc(-c3cc([N+](=O)[O-])cn3C)o2)c1`
Response line: 1.56
